Sourced from ChEMBL document CHEMBL4270523

target-desc: PhzR (Pseudomonas aeruginosa)
method-description: Agonist activity at Pseudomonas aeruginosa QscR expressed in Escherichia coli JLD271 harboring QscR expression plasmid pJN105Q and pPA1897-lacZ transcriptional fusion reporter pSC11-Q measured after 35 mins by Miller-type beta-galactosidase reporter gene assay relative to OdDHL
measurement-kind: Activity (%)

{"columns": ["molecule", "measurement-kind", "readout-unit", "observed-value"],
 "data": [
  ["CCCCCCCCCC(=O)CC(=O)O[C@H]1CCOC1=O", "Activity", "%", 37],
  ["CCCCCCCCCC(=O)CC(=O)N[C@H]1CCOC1", "Activity", "%", 74],
  ["CCCCCCCCCCCS(=O)(=O)N[C@H]1CCOC1=O", "Activity", "%", 72],
  ["CCCCCCCCCC(=O)CC(=O)N[C@H]1CCNC1=O", "Activity", "%", 56],
  ["CCCCCCCCCC(=O)CC(=O)N[C@H]1CCSC1=O", "Activity", "%", 110],
  ["CCCCCCCCCC(=O)CC(=O)N[C@H]1CCO[C@@H]1O", "Activity", "%", 110],
  ["CCCCCCCCCC(=O)CC(=O)NC1CCCC1", "Activity", "%", 100],
  ["CCCCCCCCCC(=O)CC(=O)N[C@H]1CCCC1=O", "Activity", "%", 77],
  ["CCCCCCCCCC(=O)CC(=O)NCC1CCCO1 (stereo not given)", "Activity", "%", 3.2],
  ["CCCCCCCCCC(=O)CC(=O)N[C@@H]1CCOC1=O", "Activity", "%", 110]
]}
